- study.system: HLA-B*45:01
- test.description: IEDB peptide-MHC binding, purified MHC/competitive/radioactivity; filed as Kd, often an IC50 or EC50 that approximates it; bounds were set here for any values at or beyond the usual limits of such assays
- test.context: source organism: Lymphocytic choriomeningitis virus (strain Armstrong)
property.measured: Kd (nM)

| ordered.residues | property.measured | unit.string | observed.measurement |
| --- | --- | --- | --- |
| AEILPDTTY | Kd | nM | 1230 |

----------
- study.system: HLA-A*69:01
- test.description: IEDB peptide-MHC binding, purified MHC/direct/fluorescence; filed as Kd, often an IC50 or EC50 that approximates it; bounds were set here for any values at or beyond the usual limits of such assays
- test.context: source organism: Mycobacterium tuberculosis
pKd: −log10 of the molar value.
property.measured: pKd

| ordered.residues | observed.measurement |
| --- | --- |
| VPRENATAF | ≤ 4.70 |
| FLFGDDDAL | 5.68 |
| FLWWNAAPA | ≥ 9.00 |

----------
- study.system: HLA-B*15:02
- test.description: IEDB peptide-MHC binding, purified MHC/competitive/fluorescence; filed as Kd, often an IC50 or EC50 that approximates it; bounds were set here for any values at or beyond the usual limits of such assays
- test.context: source organism: Pasteurella multocida subsp. multocida str. Pm70
property.measured: Kd (nM)

| ordered.residues | property.measured | observed.measurement |
| --- | --- | --- |
| SQLEMCEKY | Kd | 74.4 |

----------
- study.system: HLA-B*15:01
- test.description: IEDB peptide-MHC binding, purified MHC/direct/fluorescence; filed as Kd, often an IC50 or EC50 that approximates it; bounds were set here for any values at or beyond the usual limits of such assays
- test.context: source organism: Vibrio cholerae V52
property.measured: Kd

| ordered.residues | study.system | property.measured | observed.measurement |
| --- | --- | --- | --- |
| EVNAHIHTM | HLA-B*15:01 | Kd | ≥ 20 µM |

----------
- study.system: HLA-A*31:01
- test.description: IEDB peptide-MHC binding, purified MHC/direct/fluorescence; filed as Kd, often an IC50 or EC50 that approximates it; bounds were set here for any values at or beyond the usual limits of such assays
- test.context: source organism: Salmonella enterica
property.measured: Kd

| ordered.residues | property.measured | observed.measurement |
| --- | --- | --- |
| EHFYWGSVF | Kd | ≥ 20 µM |

----------
- study.system: HLA-A*01:01
- test.description: IEDB peptide-MHC binding, purified MHC/competitive/radioactivity; filed as Kd, often an IC50 or EC50 that approximates it; bounds were set here for any values at or beyond the usual limits of such assays
- test.context: source organism: Mammarenavirus brazilense
Documented Kd across a set of sequences

| ordered.residues | Kd |
| --- | --- |
| LFQLIFFLT | 3.33 µM |
| HTASGEHSL | ≥ 25.1 µM |
| GERSRCYSLY | ≥ 26.7 µM |

----------
- study.system: HLA-A*66:01
- test.description: IEDB peptide-MHC binding, purified MHC/direct/fluorescence; filed as Kd, often an IC50 or EC50 that approximates it; bounds were set here for any values at or beyond the usual limits of such assays
- test.context: source organism: Giardia lamblia ATCC 50803
property.measured: Kd (nM)

| ordered.residues | property.measured | unit.string | observed.measurement |
| --- | --- | --- | --- |
| MTYLDGHPV | Kd | nM | 134 |
